# assayed system: Fibroblast growth factor 22 (Homo sapiens)
# procedure details: FGF22 ligand-induced thermal stabilization – biophysical, thermal shift, cherry-pick, FGF22 synaptogenesis inhibitor project, dose response (AID 687022)
# condition label: recombinant FGF22 thermal shift, SYPRO orange melting
The source made the active and inactive calls.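 Rule for the calls: active = Fitted curve of melting temperature shift crosses the 1.0 threshold at or below the sample's highest valid tested concentration; inconclusive = Flat fit with activity 30 to 70, or invalid fit; inactive = Opposite direction, flat within 30, or no crossing.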
// one of active, inactive, no free text

O=C(C[C@H]1CC[C@H]2[C@@H](COC[C@@H](O)CN2S(=O)(=O)c2cccc(F)c2)O1)Nc1ccc(-c2ccccc2)cc1 :: inactive
O=C(O)/C=C/c1cccc(NC(=O)Nc2ccc([N+](=O)[O-])cc2)c1 :: active
O=C(N/N=C/c1ccc(O)c(O)c1)N/N=C/c1ccc(O)c(O)c1 :: active
CC(=O)Nc1ccc(S(=O)(=O)Nc2nc3ccc([N+](=O)[O-])cc3s2)cc1 :: active
O=C(N/N=C/c1c[nH]c2ccc(Br)cc12)C1CC1 :: active
CCOC(=O)c1c(C)[nH]c(C)c1C(=O)COC(=O)/C=C/c1ccccc1[N+](=O)[O-] :: active

Identify the outcome logged in this assay for the molecule shown: Cn1c(C(=O)NCCc2c[nH]c3ccccc23)cc2sccc21
active

Try CC(C)(C)[S@@](=O)N1Cc2cc(C(=O)NCc3ccccc3F)nc(-c3cccc(-c4ccncc4)c3)c2[C@H]1CCO next.
inactive

Thanks! And NS(=O)(=O)c1cc(C(=O)NC2CCSc3ccccc32)ccc1Cl (stereo not drawn) ?
active

Param item: O=c1oc(-c2ccc(O)c(O)c2)cc2cc(O)cc(O)c12
active

# iterate: COc1ccc(N(C)S(=O)(=O)c2cccc(C(=O)Nc3ccc(N4CCOCC4)cc3)c2)cc1
active

Try the molecule Cc1nc2ccccc2c2oc(C(=O)NCc3ccc4c(c3)OCO4)cc12
active

Same question, CCCCNC(=O)c1onc(CSc2ccc(F)c(F)c2)c1C(=O)NCCCC this time
active

Request: O=C(NCC1CCOCC1)c1ccc2nc(Cc3cccc(Cl)c3)oc2c1
active

Queued: Cc1cccc(S(=O)(=O)N2C[C@H](O)COC[C@H]3O[C@H](CC(=O)Nc4ccccc4)CC[C@@H]32)c1
active

Can you handle CC(C)C#Cc1cnc2c(c1)C(=O)N([C@@H](C)CO)C[C@@H](C)[C@H](CN(C)C(=O)c1cnccn1)O2 next?
inactive

* * *

# assayed system: Fibroblast growth factor 22 (Homo sapiens)
# procedure details: FGF22 ligand-induced thermal stabilization – biophysical, thermal shift, cherry-pick, FGF22 synaptogenesis inhibitor project, dose response (AID 687022)
# condition label: recombinant FGF22 thermal shift, SYPRO orange melting
measurement name: AbsAC1 (concentration giving Tm-shift threshold 1.0)

S=C(NCCN1CCOCC1)Nc1ccc(-c2nc3ccccc3[nH]2)cc1 :: 7.5 µM
COc1ccc(C)cc1NS(=O)(=O)c1ccc(NS(=O)(=O)c2ccc(NC(C)=O)cc2)cc1 :: 3.7 µM
Cc1ccc(OCCCC(=O)Nc2ccc(S(=O)(=O)N3CCOCC3)cc2)cc1 :: 2.45 µM
C[C@@H]1CN([C@H](C)CO)C(=O)c2cc(NC(=O)Nc3ccc(C(F)(F)F)cc3)ccc2O[C@@H]1CN(C)Cc1ccc(C(=O)O)cc1 :: 11.5 µM
CC(=O)c1ccc(NC(=O)c2noc(C(C)C)c2[N+](=O)[O-])cc1 :: 3.85 µM

Please go through the list and note AbsAC1 (concentration giving Tm-shift threshold 1.0) for each molecule.
1. O=C(Nc1cc(Cl)cc(Cl)c1)N[C@H]1CC[C@H](CCNS(=O)(=O)c2cccc(F)c2)O[C@@H]1CO
2. CCOC(=O)c1ccc(S(=O)(=O)Nc2cc(C(=O)O)ccc2Cl)cc1
3. O=[N+]([O-])c1cccc(S(=O)(=O)Nc2ccc(-c3ccc(N4CCOCC4)nn3)cc2)c1

11 µM
26.2 µM
7.01 µM
